- EXPERIMENTAL_SYSTEM: Histone-lysine N-methyltransferase EHMT2 (Homo sapiens)
- Sequence (Q96KQ7 whole entry, the tested form may be a part): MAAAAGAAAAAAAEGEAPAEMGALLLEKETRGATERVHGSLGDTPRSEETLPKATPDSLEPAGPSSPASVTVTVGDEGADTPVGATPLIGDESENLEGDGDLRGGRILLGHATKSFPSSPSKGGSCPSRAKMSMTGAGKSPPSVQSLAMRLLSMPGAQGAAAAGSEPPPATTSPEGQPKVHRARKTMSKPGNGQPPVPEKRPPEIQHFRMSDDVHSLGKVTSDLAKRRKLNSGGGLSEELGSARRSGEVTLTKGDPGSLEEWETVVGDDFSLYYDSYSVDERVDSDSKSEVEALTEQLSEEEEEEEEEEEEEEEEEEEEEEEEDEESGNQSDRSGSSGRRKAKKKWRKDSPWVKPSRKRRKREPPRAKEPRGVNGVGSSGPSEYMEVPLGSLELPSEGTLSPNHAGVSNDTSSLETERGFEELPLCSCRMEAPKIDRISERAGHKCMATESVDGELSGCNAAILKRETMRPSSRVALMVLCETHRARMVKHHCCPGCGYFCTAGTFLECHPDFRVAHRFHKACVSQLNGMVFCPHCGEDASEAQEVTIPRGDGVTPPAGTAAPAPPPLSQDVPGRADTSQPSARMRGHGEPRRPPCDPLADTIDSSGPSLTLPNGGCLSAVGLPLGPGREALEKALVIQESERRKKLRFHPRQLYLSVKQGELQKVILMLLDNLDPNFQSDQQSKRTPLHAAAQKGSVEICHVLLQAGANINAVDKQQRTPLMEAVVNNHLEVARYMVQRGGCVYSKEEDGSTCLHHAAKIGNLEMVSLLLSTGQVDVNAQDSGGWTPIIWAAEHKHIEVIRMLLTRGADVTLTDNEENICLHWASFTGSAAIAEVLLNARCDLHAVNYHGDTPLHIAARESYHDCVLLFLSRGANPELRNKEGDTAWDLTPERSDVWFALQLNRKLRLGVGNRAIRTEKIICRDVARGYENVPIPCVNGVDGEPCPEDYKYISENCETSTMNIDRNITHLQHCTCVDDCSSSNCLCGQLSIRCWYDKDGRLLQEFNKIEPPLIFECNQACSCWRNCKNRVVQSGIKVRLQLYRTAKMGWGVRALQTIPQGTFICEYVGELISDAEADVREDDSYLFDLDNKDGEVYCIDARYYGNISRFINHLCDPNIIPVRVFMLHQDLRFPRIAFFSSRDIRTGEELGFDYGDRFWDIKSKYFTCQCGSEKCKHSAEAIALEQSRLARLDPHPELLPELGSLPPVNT
- ASSAY_REMARKS: Inhibition of N-terminal GST-tagged human recombinant G9a (785 to 1210 residues) expressed in baculovirus infected Sf9 cells incubated for 1 hr by AlphaLISA analysis
PROPERTY: IC50 (nM)
Numbers only, in nM.

# batch: return IC50 for each of the 3 compounds below
1. CCCCC(NC(=O)c1[nH]c2c(c1C)C(=O)CCC2)C(=O)Nc1ccccc1 (racemic)
2. Cc1c(C(=O)N[C@@H](CCC2CC2)C(=O)Nc2ccc(C#N)cc2)[nH]c2c1C(=O)CC(C)(C)C2
3. CCCCC(NC(=O)c1[nH]c2c(c1C)C(=O)CC(C)(C)C2)C(=O)Nc1cccc(C#N)c1 (racemic)

A:
[20900, 27, 685]
